Reference source for all entries: the supplement of paper PMC10567573

B1: CLCN6 (parent)
chain: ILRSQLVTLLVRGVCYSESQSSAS

variants of: B1; experiment: protein stability index of a GFP-peptide fusion (GPS, HEK-293T) (PSI 1-6); higher = more stable; details: c terminus: a fixed tail appended;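 also: lentivirally expressed fusions sorted by FACS into six bins by GFP to DsRed ratio, PSI derived from sequencing read proportions per bin multiplied by bin number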
Label yes for high-side protein stability index (at or above 3) and no for low-side protein stability index (below it).

# mutation spec, category
records = [
    ("V7C", "no"),
]

stdin: Quick check: does E18Y have protein stability index greater than or equal to 3?
stdout: no

stdin: Quick check: does Y16L have protein stability index greater than or equal to 3?
stdout: yes

stdin: Quick check: does S17T have protein stability index greater than or equal to 3?
stdout: no

stdin: Quick check: does A23V have protein stability index greater than or equal to 3?
stdout: no

stdin: Quick check: does S21L have protein stability index greater than or equal to 3?
stdout: no

stdin: Quick check: does V11M have protein stability index greater than or equal to 3?
stdout: yes

stdin: Quick check: does R12W have protein stability index greater than or equal to 3?
stdout: no

stdin: Quick check: does Y16E have protein stability index greater than or equal to 3?
stdout: no
